Listed below: self-cleavage values for each entry.
B1: HDV Ribozyme (parent)
chain: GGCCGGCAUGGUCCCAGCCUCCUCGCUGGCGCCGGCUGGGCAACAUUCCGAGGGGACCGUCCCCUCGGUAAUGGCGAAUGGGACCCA

- Variants of: B1
- experimentalDetails: self-cleavage, relative activity (ratio to wild type); higher = more cleavage; co-transcriptional
propertyName: self-cleavage

var | propertyName | recordedValue
C7A U37G | self-cleavage | 0.246
G40U C66A | self-cleavage | 0.702
G67C A77U | self-cleavage | 0.707
C49U G68C | self-cleavage | 0.784
C26U U60C | self-cleavage | 0.95
A42U C61A | self-cleavage | 0.47
G2A G40U | self-cleavage | 0.0799
G10A U47C | self-cleavage | 0.554
U20C G82A | self-cleavage | 0.0462
C22A G81U | self-cleavage | 0.0536
C62U A71G | self-cleavage | 0.997
C48U U69G | self-cleavage | 0.869
U20G C41G | self-cleavage | 0.166
G6C G67A | self-cleavage | 0.35
C15U U65C | self-cleavage | 0.674
G39U G55A | self-cleavage | 0.831
C64U G73C | self-cleavage | 0.601
U23G U65A | self-cleavage | 0.886
U46G A77U | self-cleavage | 0.0831
G28A G40A | self-cleavage | 0.0615
G59U C64U | self-cleavage | 1.05
U27G G35C | self-cleavage | 0.0594
G1C C19A | self-cleavage | 0.201
G25A A51C | self-cleavage | 0.213
C44G G76A | self-cleavage | 0.8
C44G G67A | self-cleavage | 0.65
A16C G34C | self-cleavage | 0.104
U23G C49A | self-cleavage | 0.831
G73A A87G | self-cleavage | 0.697
C3A A16G | self-cleavage | 0.401
C13A C41U | self-cleavage | 0.149
C36U U60A | self-cleavage | 0.727
C3U A56G | self-cleavage | 0.831
U20C C33A | self-cleavage | 0.0665
C33A G52U | self-cleavage | 0.161
C19G G67A | self-cleavage | 0.0779
C36U G38U | self-cleavage | 0.147
U23C C49U | self-cleavage | 0.852
A45C U46G | self-cleavage | 0.554
C61U C86G | self-cleavage | 0.847
U9C C86U | self-cleavage | 1.35
G29A U60G | self-cleavage | 0.0923
G10C C30G | self-cleavage | 0.212
C3U C32G | self-cleavage | 0.0769
C48G C58A | self-cleavage | 1.14
C3G C13A | self-cleavage | 0.0545
